System: HIV strain 104pre
Assay method text: MAGI assay using HeLa CD4/LTR-beta-Gal cells, 104pre
Format: cell-based
Measurement conditions: Human immunodeficiency virus 1; Table 7; HeLa CD4/LTR-beta-Gal cells; read-out: HIV 104 pre EC50
pEC50: −log10 of the molar value.
Measured property: pEC50

Cc1cn([C@H]2C[C@H](N=[N+]=[N-])[C@@H](CO)O2)c(=O)[nH]c1=O [AZT, zidovudine, reference compound] | 7.23

* * *

Assay method text: Cytotoxicity, MTT method using non-infected MT-4 cells
Type: cell-based
Measurement conditions: human, non-infected MT-4 cells, Table 3, read-out: Cytotoxicity (CC50, μg/ml)
Overview of reported CC50 at 5 days across a group of compounds:
Measured property: CC50 at 5 days (µg/mL)

C#C[C@]1(CO)O[C@@H](n2cnc3c(=O)[nH]c(N)nc32)CC1O (stereo partly shown) | 0.41
C#C[C@]1(CO)O[C@@H](n2cnc3c(=O)[nH]cnc32)CC1O (stereo partly shown) | 38
C#C[C@]1(CO)O[C@@H](n2cnc3c(N)ncnc32)CC1O (stereo partly shown) | 4.4
C#C[C@]1(CO)O[C@@H](n2cnc3c(N)nc(N)nc32)CC1O (stereo partly shown) | 0.26

* * *

Assay method text: Cytotoxicity, MTT method using non-infected MT-4 cells
Type: cell-based
Measurement conditions: human, Table 3, read-out: Cytotoxicity (CC50, μg/ml)
Measured property: CC50 at 5 days (µg/mL)

Cc1cn([C@H]2C[C@H](N=[N+]=[N-])[C@@H](CO)O2)c(=O)[nH]c1=O [AZT, zidovudine, reference compound] | 9.08

* * *

Assay method text: Cytotoxicity, MTT method using non-infected MT-4 cells
Format: cell-based
Measurement conditions: human, non-infected MT-4 cells, Table 4, read-out: Cytotoxicity (CC50)
Measured property: CC50 at 5 days

C#C[C@]1(CO)O[C@@H](n2cc(F)c(N)nc2=O)C[C@@H]1O | > 500 µM

* * *

Test system: HIV drug-resistant strain: M184V
Assay method text: MAGI assay using HeLa CD4/LTR-beta-Gal cells, M184V
Type: cell-based
Measurement conditions: Human immunodeficiency virus 1, HeLa, read-out: HIV M184V (EC50, μg/ml), Table 5
Measured property: EC50 (µg/mL)

C#C[C@]1(CO)O[C@@H](n2ccc(N)nc2=O)[C@@H](O)[C@@H]1O | 0.19
Cc1cn([C@H]2C[C@H](N=[N+]=[N-])[C@@H](CO)O2)c(=O)[nH]c1=O [AZT, zidovudine, reference compound] | 0.0083
C#C[C@]1(CO)O[C@@H](n2cc(C)c(=O)[nH]c2=O)C[C@@H]1O [4′-C-ethynyl thymidine, 4′-C-ethynylthymidine, reference compound] | 0.049
C#C[C@]1(CO)O[C@@H](n2ccc(N)nc2=O)C[C@@H]1O | 0.00054

* * *

Assay method text: Cytotoxicity by use of HeLa CD4/LTR-beta-Gal cells
Assay type: cell-based
Measurement conditions: human, Table 6, read-out: Cytotoxicity (CC50, μg/ml)
Overview of reported CC50 across a group of compounds:
Measured property: CC50 (µg/mL)

C#C[C@]1(CO)O[C@@H](n2cnc3c(N)nc(N)nc32)CC1O (stereo partly shown) [Compound 28] | 2.7
C#C[C@]1(CO)O[C@@H](n2cnc3c(=O)[nH]c(N)nc32)CC1O (stereo partly shown) [Compound 30] | 15.2

* * *

Assay method text: Cytotoxicity, MTT method using non-infected MT-4 cells
Assay type: cell-based
Measurement conditions: human, non-infected MT-4 cells, Table 2, read-out: Cytotoxicity (CC50, μg/ml)
Measured property: CC50 at 5 days (µg/mL)

C#C[C@]1(CO)O[C@@H](n2ccc(N)nc2=O)[C@@H](O)[C@@H]1O | 0.53
